Tested on: Renilla luciferase RNA
Assay: Barcoded aptazyme variant library screen: un-cleaved Renilla luciferase RNA by barcode read counts, HEK293-T cells
Format: cell-based
Conditions: un-cleaved Renilla luciferase RNA, HEK293-T cells cultured with 1 mM theophylline (ON) over without theophylline (OFF); barcode read counts, triplicate
QUANTITY: Fold change in RNA expression between the ON state and the OFF state

MOLECULE	RESULT
RA009 (nucleic acid, expressed or natural sequence) DNA: GCGCGTCCTGGATTCGCGGAAACGCGTACATCCAGCTGACGAGTCCCAAATAGGACGACCGGAATACCAGCATCGTCTTGATGCCCTTGGAAGTCCGGAACGCGC	3.8 fold
RA074 (nucleic acid, expressed or natural sequence) DNA: GCGCGTCCTGGATTCGCGGAAACGCGTACATCCAGCTGACGAGTCAGAATACCAGCATCGTCTTGATGCCCTTGGAAGTCTCCAAATAGGACGAAACGCGC	1.8 fold
RA199 (nucleic acid, expressed or natural sequence) DNA: GCGCGTCCTGGATTCGCGGAAACAGTGATACCAGCATCGTCTTGATGCCCTTGGCAGCACTGCGTACATCCAGCTGACGAGTCCCAAATAGGACGAAACGCGC	1.2 fold
RA084 (nucleic acid, expressed or natural sequence) DNA: GCGCGTCCTGGAGAGAATACCAGCATCGTCTTGATGCCCTTGGAAGTCTCTTCGCGGAAACGCGTACATCCAGCTGACGAGTCCCAAATAGGACGAAACGCGC	1.7 fold
